The measurements presented in this section are drawn from patent US20110135636A1.

Biological target: T1, recombinant human EGFR extracellular domain with 6xHis (human, UniProt P00533 25-645)
T1 construct: In-house produced; also called 6xHis EGFR ECD; soluble human EGFR ECD; not shown: 6xHis tag
Assay: SPR competition, competitor 1024
Protocol: SPR analysis was performed on a Biacore 3000 machine containing four flow cells. A CM5 Biacore chip was conjugated with 10,000 Resonance units (Ru) polyclonal anti-His antibody to flow cells 1-4 according to the manufacturer's instructions. […] Immediately after antigen injection the maximal binding of the Anti-EGFR mAb without competition was established in each flow cell during a reference run. […]
So I've got a bunch of binders here, and I need their % inhibition values.
Please answer in the form of a number followed by its unit of measurement.

Batch request: % inhibition for each of the following binders.
1. antibody 1208 (antibody, human IgG1, kappa, V domains shown, Chimeric IgG1 kappa; also called clone 1208) VH: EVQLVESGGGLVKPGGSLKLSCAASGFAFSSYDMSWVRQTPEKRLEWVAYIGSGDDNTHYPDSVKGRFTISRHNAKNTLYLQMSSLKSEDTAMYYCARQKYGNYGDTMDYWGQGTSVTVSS VL: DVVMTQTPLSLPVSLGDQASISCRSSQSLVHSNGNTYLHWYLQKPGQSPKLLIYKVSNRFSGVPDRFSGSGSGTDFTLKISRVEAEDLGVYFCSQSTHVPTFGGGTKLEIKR
2. antibody 1261 (antibody, human IgG1, kappa, V domains shown, Chimeric IgG1 kappa) VH: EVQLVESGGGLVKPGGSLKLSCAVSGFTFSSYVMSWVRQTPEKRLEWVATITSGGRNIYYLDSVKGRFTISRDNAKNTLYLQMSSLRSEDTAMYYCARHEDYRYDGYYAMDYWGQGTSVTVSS VL: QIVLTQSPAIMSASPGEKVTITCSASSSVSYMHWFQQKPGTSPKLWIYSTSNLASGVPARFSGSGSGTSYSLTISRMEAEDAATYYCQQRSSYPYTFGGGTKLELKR
3. antibody 1320 (antibody, human IgG1, kappa, V domains shown, Chimeric IgG1 kappa) VH: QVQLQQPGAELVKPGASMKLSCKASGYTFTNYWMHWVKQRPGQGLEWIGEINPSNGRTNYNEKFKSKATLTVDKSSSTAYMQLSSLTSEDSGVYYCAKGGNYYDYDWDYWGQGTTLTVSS VL: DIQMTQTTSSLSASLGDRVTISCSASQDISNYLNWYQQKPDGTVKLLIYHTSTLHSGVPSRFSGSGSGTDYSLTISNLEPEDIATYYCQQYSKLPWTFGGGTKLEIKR

1: 3%; 2: -24%; 3: 93%

Batch request: % inhibition for each of the following binders.
1. antibody 1344 (antibody, human IgG1, kappa, V domains shown, Chimeric IgG1 kappa) VH: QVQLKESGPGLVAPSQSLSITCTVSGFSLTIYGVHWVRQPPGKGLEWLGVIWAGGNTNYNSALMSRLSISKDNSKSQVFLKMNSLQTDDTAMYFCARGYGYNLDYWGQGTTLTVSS VL: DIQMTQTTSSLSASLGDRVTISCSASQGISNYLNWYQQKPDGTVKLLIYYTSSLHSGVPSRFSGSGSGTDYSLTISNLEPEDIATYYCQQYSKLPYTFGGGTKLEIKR
2. antibody 1254 (antibody, human IgG1, kappa, V domains shown, Chimeric IgG1 kappa; also called mAb 1254) VH: EVQLVESGGGLVKPGGSLKLSCAASGFAYSTYDMSWVRQTPEKRLEWVAYISSGGDAAYYPDTVKGRFTISRDNAKNTLYLQMSSLKSEDTAMYYCARSRYGNYGDAMDYWGQGTSVTVSS VL: DVVMTQTPLSLPVSLGDQASISCRSSQSLVHSNGNTYLHWYLQKPGQSPKLLLYKVSNRFSGVPDRFSGSGSGTDFTLKISRVESEDLGVYFCSQNTHVYTFGGGTKLEIKR

1: 3%; 2: 6%
